Cited source: ChEMBL document CHEMBL4825698

test: Metabolic stability in pooled mouse hepatocytes assessed as parent compound remaining after 30 mins; format: ADME, cell-based, Hepatocyte; details: read-out: Stabilty
For each record, check the reported remaining at 0.5 h: if it is below 30% write TRUE, else write FALSE.

## Task Just wondering, is remaining at 0.5 h of Cc1ccc(C(=O)OC2CCC(CN3CCN(c4cc(=O)c5cc(C(F)(F)F)cc([N+](=O)[O-])c5s4)CC3)CC2)cc1 (stereo not drawn) below 30%?
## Result TRUE

## Task Try this molecule next: O=c1cc(N2CCN(CC3CCC(NP(=O)(Oc4ccccc4)Oc4ccccc4)CC3)CC2)sc2c([N+](=O)[O-])cc(C(F)(F)F)cc12 (stereo not drawn)
## Result FALSE

* * *

system: Mycobacterium tuberculosis; assay: Antimycobacterial activity against Mycobacterium tuberculosis H37Rv assessed as bacterial growth inhibition incubated for 7 days by MABA assay; assay type: functional; details: 168 h, time 7 day
readout_label: log10(MIC) (log10 of the value in µg/mL)
A difference of one corresponds to tenfold MIC; all values are log10 with MIC in µg/mL.

>  <compound>
O=C(OC1CCC(CN2CCN(c3cc(=O)c4cc(C(F)(F)F)cc([N+](=O)[O-])c4s3)CC2)CC1)C1CCC1 (stereo not given)

>  <log10(MIC)>
-1.55

$$$$
>  <compound>
COP(=O)(NC1CCC(CN2CCN(c3cc(=O)c4cc(C(F)(F)F)cc([N+](=O)[O-])c4s3)CC2)CC1)OC (stereo not given)

>  <log10(MIC)>
0.50

$$$$
>  <compound>
O=c1cc(N2CCN(CC3CCCCC3)CC2)sc2c(NO)cc(C(F)(F)F)cc12

>  <log10(MIC)>
-0.61

$$$$
>  <compound>
O=C(OC1CCC(CN2CCN(c3cc(=O)c4cc(C(F)(F)F)cc([N+](=O)[O-])c4s3)CC2)CC1)c1ccc2ccccc2c1 (stereo not given)

>  <log10(MIC)>
-1.52

$$$$
>  <compound>
COc1ccc(C(=O)OC2CCC(CN3CCN(c4cc(=O)c5cc(C(F)(F)F)cc([N+](=O)[O-])c5s4)CC3)CC2)cc1 (stereo not given)

>  <log10(MIC)>
-0.92

$$$$

Query compound follows.
## Task Lookup: log10(MIC) / Mycobacterium tuberculosis / `NNC(=O)c1ccncc1`
## Result -1.41

* * *

assay: Metabolic stability in pooled mouse hepatocytes assessed as parent compound remaining after 30 mins; assay type: ADME, cell-based, Hepatocyte; conditions: read-out: Stabilty
readout_label: remaining at 0.5 h (%)
Give just the number in %; leave the unit off.

// below: answered molecules
>  <molecule>
O=C(OC1CCC(CN2CCN(c3cc(=O)c4cc(C(F)(F)F)cc([N+](=O)[O-])c4s3)CC2)CC1)c1cccs1 (centres undefined)

>  <unit_name>
%

>  <remaining at 0.5 h>
1.8

$$$$
>  <molecule>
NC1CCC(CN2CCN(c3cc(=O)c4cc(C(F)(F)F)cc([N+](=O)[O-])c4s3)CC2)CC1 (centres undefined)

>  <unit_name>
%

>  <remaining at 0.5 h>
107

$$$$
>  <molecule>
O=c1cc(N2CCN(CC3CCCCC3)CC2)sc2c([N+](=O)[O-])cc(C(F)(F)F)cc12

>  <unit_name>
%

>  <remaining at 0.5 h>
80.6

$$$$

Now for a further molecule.
## Task What does the record list as remaining at 0.5 h for CC(=O)OC1CCC(CN2CCN(c3cc(=O)c4cc(C(F)(F)F)cc([N+](=O)[O-])c4s3)CC2)CC1 (centres undefined) ?
## Result 0

* * *

system: Mycobacterium tuberculosis; experiment: Antimycobacterial activity against Mycobacterium tuberculosis H37Rv assessed as bacterial growth inhibition incubated for 7 days by MABA assay; assay type: functional; conditions: 168 h, time 7 day
readout_label: log10(MIC) (log10 of the value in µg/mL)
Note: values are log10 of MIC expressed in µg/mL.

>  <compound>
CC(=O)NC1CCC(CN2CCN(c3cc(=O)c4cc(C(F)(F)F)cc([N+](=O)[O-])c4s3)CC2)CC1 (stereo not given)

>  <test_system>
Mycobacterium tuberculosis

>  <log10(MIC)>
0.67

$$$$
>  <compound>
Nc1cc(C(F)(F)F)cc2c(=O)cc(N3CCN(CC4CCCCC4)CC3)sc12

>  <test_system>
Mycobacterium tuberculosis

>  <log10(MIC)>
1.10

$$$$
>  <compound>
NC1CCC(CN2CCN(c3cc(=O)c4cc(C(F)(F)F)cc([N+](=O)[O-])c4s3)CC2)CC1 (stereo not given)

>  <test_system>
Mycobacterium tuberculosis

>  <log10(MIC)>
-0.31

$$$$
>  <compound>
C=CC(=O)OC1CCC(CN2CCN(c3cc(=O)c4cc(C(F)(F)F)cc([N+](=O)[O-])c4s3)CC2)CC1 (stereo not given)

>  <test_system>
Mycobacterium tuberculosis

>  <log10(MIC)>
-1.46

$$$$
>  <compound>
O=C(NC1CCC(CN2CCN(c3cc(=O)c4cc(C(F)(F)F)cc([N+](=O)[O-])c4s3)CC2)CC1)c1ccccc1 (stereo not given)

>  <test_system>
Mycobacterium tuberculosis

>  <log10(MIC)>
-0.61

$$$$
>  <compound>
CO[C@H]1/C=C/O[C@@]2(C)Oc3c(C)c(O)c4c(O)c(c(/C=N/N5CCN(C)CC5)c(O)c4c3C2=O)NC(=O)/C(C)=C\C=C\[C@H](C)[C@H](O)[C@@H](C)[C@@H](O)[C@@H](C)[C@H](OC(C)=O)[C@@H]1C

>  <test_system>
Mycobacterium tuberculosis

>  <log10(MIC)>
-1.60

$$$$
>  <compound>
COc1ccccc1C(=O)OC1CCC(CN2CCN(c3cc(=O)c4cc(C(F)(F)F)cc([N+](=O)[O-])c4s3)CC2)CC1 (stereo not given)

>  <test_system>
Mycobacterium tuberculosis

>  <log10(MIC)>
-1.51

$$$$
>  <compound>
O=c1cc(N2CCN(CC3CCC(NS(=O)(=O)c4ccccc4)CC3)CC2)sc2c([N+](=O)[O-])cc(C(F)(F)F)cc12 (stereo not given)

>  <test_system>
Mycobacterium tuberculosis

>  <log10(MIC)>
-0.97

$$$$

// next entry
## Task For the compound O=c1cc(N2CCN(CC3CCC(O)CC3)CC2)sc2c([N+](=O)[O-])cc(C(F)(F)F)cc12 (stereo not given) , what log10(MIC) is on record?
## Result -1.16

* * *

tested on: Mycobacterium tuberculosis; assay: Antimycobacterial activity against Mycobacterium tuberculosis H37Rv assessed as bacterial growth inhibition incubated for 7 days by MABA assay; assay type: functional; details: 168 h, time 7 day
readout_label: MIC (µg/mL)
Numbers only here, please. The scale is µg/mL.

Here's what some known entries look like.
>  <compound>
O=C(OC1CCC(CN2CCN(c3cc(=O)c4cc(C(F)(F)F)cc([N+](=O)[O-])c4s3)CC2)CC1)c1ccc2c(c1)OCC2 (configuration not stated)

>  <test_system>
Mycobacterium tuberculosis

>  <readout_label>
MIC

>  <unit_name>
µg/mL

>  <value_measured>
0.179

$$$$
>  <compound>
Cc1ccc(C(=O)OC2CCC(CN3CCN(c4cc(=O)c5cc(C(F)(F)F)cc([N+](=O)[O-])c5s4)CC3)CC2)cc1 (configuration not stated)

>  <test_system>
Mycobacterium tuberculosis

>  <readout_label>
MIC

>  <unit_name>
µg/mL

>  <value_measured>
0.031

$$$$

Pending compound:
## Task For the compound shown here, O=c1cc(N2CCN(CC3CCC(NP(=O)(Oc4ccccc4)Oc4ccccc4)CC3)CC2)sc2c([N+](=O)[O-])cc(C(F)(F)F)cc12 (configuration not stated) , give the reported MIC.
## Result 0.076

* * *

assay: Metabolic stability in pooled mouse hepatocytes assessed as parent compound remaining after 30 mins; type: ADME, cell-based, Hepatocyte; conditions: read-out: Stabilty
Examples of molecules with documented remaining at 0.5 h follow.
Value expressed in %; do not type the unit.

>  <molecule>
Nc1cc(C(F)(F)F)cc2c(=O)cc(N3CCN(CC4CCC(O)CC4)CC3)sc12 (centres undefined)

>  <readout_label>
remaining at 0.5 h

>  <value_measured>
60

$$$$
>  <molecule>
O=c1cc(N2CCN(CC3CCC(NS(=O)(=O)c4ccccc4)CC3)CC2)sc2c([N+](=O)[O-])cc(C(F)(F)F)cc12 (centres undefined)

>  <readout_label>
remaining at 0.5 h

>  <value_measured>
95.3

$$$$
>  <molecule>
O=c1cc(N2CCN(CC3CCC(O)CC3)CC2)sc2c([N+](=O)[O-])cc(C(F)(F)F)cc12 (centres undefined)

>  <readout_label>
remaining at 0.5 h

>  <value_measured>
51.2

$$$$

// switching to the query molecule
## Task Item CC(=O)NC1CCC(CN2CCN(c3cc(=O)c4cc(C(F)(F)F)cc([N+](=O)[O-])c4s3)CC2)CC1 (centres undefined) has what recorded remaining at 0.5 h?
## Result 94.9
